experiment: aqueous solubility of torcetrapib; type: physicochemical
measuredAttribute: solubility

[[record]]
molecule = "CCOC(=O)N1c2ccc(C(F)(F)F)cc2[C@@H](N(Cc2cc(C(F)(F)F)cc(C(F)(F)F)c2)C(=O)OC)C[C@H]1CC [torcetrapib]"
measuredattribute = "solubility"
observedmeasurement = "< 0.04 µg/mL"


* * *

assay: in vitro dissolution test using a syringe method (Drug 2); assay type: physicochemical; settings: maximum concentration of Drug 2 in solution during the first 90 minutes
measuredAttribute: MDC90 (µg/mL)

[[record]]
substancesmiles = "CC[C@@H]1C[C@H](N(Cc2cc(C(F)(F)F)cc(C(F)(F)F)c2)C(=O)OC)c2cc(C(F)(F)F)ccc2N1C(=O)OC(C)C"
measuredattribute = "MDC90"
readingunit = "µg/mL"
observedmeasurement = 7.6

